# subject of test: ISOC2 Isochorismatase domain-containing protein 2, mitochondrial (Homo sapiens, UniProt Q96AB3)
# Construct: isoTOP-ABPP experiments performed in cell lysates (in vitro); endogenous in cells; host or cells: soluble proteome of human cancer cell lines (MDA-MB-231; Ramos and Jurkat also prepared)
# Sequence (Q96AB3 1-205): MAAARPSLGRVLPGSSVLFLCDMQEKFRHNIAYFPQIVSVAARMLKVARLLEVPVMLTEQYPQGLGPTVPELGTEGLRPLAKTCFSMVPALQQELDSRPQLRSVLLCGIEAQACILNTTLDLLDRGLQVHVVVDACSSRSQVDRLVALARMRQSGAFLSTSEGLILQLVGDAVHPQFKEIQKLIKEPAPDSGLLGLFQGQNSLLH
# experimental details: competitive isoTOP-ABPP
# Assay type: binding
# Parameters: key: R = MS1 peak area ratio, DMSO (heavy) / compound-treated (light); capped at 20
# protocol conditions: 50 uM, 231 sol, in vitro
# Experimental: In vitro covalent fragment treatment for isoTOP-ABPP. All compounds were made up as solutions in DMSO (100×) and were used at a final concentration of 50 μM for activated esters and 100 μM for guanidinylating agents. […] R value calculation and processing. The ratios of light and heavy MS1 peaks for each unique peptide were quantified with a CIMAGE software using default parameters (3 MS1 acquisitions per peak and signal to noise threshold set to 2.5). […]
For each of the compounds below, state its isoTOP-ABPP reactivity ratio at lysine Q96AB3_K178.
Give bare numbers.

COc1cc(CCC(=O)Oc2ccc([N+](=O)[O-])cc2[N+](=O)[O-])cc(OC)c1OC = 9.1
O=C(Oc1c(F)c(F)c(F)c(F)c1F)c1ccc2ccccc2n1 = 1.4
O=C(CCc1cn(-c2ccccc2)nc1-c1ccccc1)Oc1ccc([N+](=O)[O-])cc1[N+](=O)[O-] = 1.7

Now turn to the next compound.
**Q:** Dear colleague, I am looking for the recorded isoTOP-ABPP reactivity ratio at lysine Q96AB3_K178 of the following compound: `CCn1cc(C(=O)Oc2c(F)c(F)c(F)c(F)c2F)c(=O)c2ccc(C)nc21`
**A:** 1.8

###

# subject of test: NLN Neurolysin, mitochondrial (Homo sapiens, UniProt Q9BYT8)
# Construct: isoTOP-ABPP experiments performed in cell lysates (in vitro); endogenous in cells; host or cells: soluble proteome of human cancer cell lines (MDA-MB-231; Ramos and Jurkat also prepared)
# Sequence (Q9BYT8 38-704): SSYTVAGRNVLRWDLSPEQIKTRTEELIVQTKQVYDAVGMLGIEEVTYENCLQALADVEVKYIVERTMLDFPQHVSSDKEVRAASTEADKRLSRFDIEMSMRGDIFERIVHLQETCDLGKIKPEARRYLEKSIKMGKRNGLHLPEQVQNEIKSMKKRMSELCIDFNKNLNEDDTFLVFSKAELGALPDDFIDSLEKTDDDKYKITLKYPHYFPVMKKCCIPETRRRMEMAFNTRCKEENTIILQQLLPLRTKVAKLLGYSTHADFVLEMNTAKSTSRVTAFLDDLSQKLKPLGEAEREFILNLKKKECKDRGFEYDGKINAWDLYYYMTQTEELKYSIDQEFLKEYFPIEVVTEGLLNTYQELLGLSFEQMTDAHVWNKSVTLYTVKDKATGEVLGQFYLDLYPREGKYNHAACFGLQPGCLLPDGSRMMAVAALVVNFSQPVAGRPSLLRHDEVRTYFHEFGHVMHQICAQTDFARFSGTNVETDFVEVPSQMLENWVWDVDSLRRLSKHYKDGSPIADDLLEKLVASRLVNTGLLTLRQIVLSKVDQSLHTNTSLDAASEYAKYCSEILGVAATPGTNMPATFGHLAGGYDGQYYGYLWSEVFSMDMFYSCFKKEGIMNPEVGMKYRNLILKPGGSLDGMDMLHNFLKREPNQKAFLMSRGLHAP
# experimental details: competitive isoTOP-ABPP
# Format: binding
# protocol conditions: Q9BYT8_K253; 50 uM, 231 sol, in vitro
For each of the compounds below, state its R value (DMSO/fragment) for probe 1 labeling.
Give bare numbers.

Use these answered entries as a reference point.
O=C(Oc1c(F)c(F)c(F)c(F)c1F)c1cc(C(F)(F)F)cc(C(F)(F)F)c1 = 0.7
O=C(CCc1cn(-c2ccccc2)nc1-c1ccccc1)Oc1c(F)c(F)c(F)c(F)c1F = 1.0
O=C(Oc1c(F)c(F)c(F)c(F)c1F)C(c1ccccc1)c1ccccc1 [fragment 20, Pentafluorophenyl 2,2-diphenylacetate] = 0.9

Now turn to the next compound.
**Q:** Short answer please: R value (DMSO/fragment) for probe 1 labeling, NLN Neurolysin, mitochondrial (Homo sapiens, UniProt Q9BYT8), entry `Cn1cc(CC(=O)Oc2c(F)c(F)c(F)c(F)c2F)c2ccccc21`
**A:** 1.5
